Numbers sourced from patent US10022422B2.

Listed below: AUC,all values for each entry.
Test: Figure 6
Where a SMILES comes first, the peptide text is derived from it. Bridges are numbered along the chain shown (N, C = ends). [ ]: non-standard residue; d: D form. S5 = C=CCCC[C@](C)(N)C(=O)O; Nle = CCCC[C@H](N)C(=O)O; Aib = CC(C)(N)C(=O)O
# unit: ng·h/mL | format: bare number

Consider CCCC[C@H](NC(C)=O)C(=O)N[C@@H](CC(=O)O)C(=O)N[C@H](C(=O)N[C@@H](CC(N)=O)C(=O)NC(C)(C)C(=O)N[C@H](C(=O)N[C@@H](CC(C)C)C(=O)N[C@@H](CC(C)C)C(=O)N[C@@H](Cc1ccccc1)C(=O)N[C@@H](CC(C)C)C(=O)N[C@@H](CCCCN)C(=O)N[C@H](C(=O)NC(C)(C)C(=O)N[C@@H](C)C(=O)N[C@@H](CCC(N)=O)C(N)=O)C(C)C)[C@@H](C)O)C(C)C [SP-2, Ac-NleDVNAibTLLFLKVAibAQ-NH2] (Ac-[Nle]DVN[Aib]TLLFLKV[Aib]AQ-NH2) . Its measured AUC,all is 3360

Consider CCCC[C@H](NC(C)=O)C(=O)N[C@@H](CC(=O)O)C(=O)N[C@H](C(=O)N[C@@H](CC(N)=O)C(=O)NC(C)(C)C(=O)N[C@H](C(=O)N[C@@H](CC(C)C)C(=O)N[C@@]1(C)CCCC=CCCC[C@@](C)(C(=O)N[C@@H](C)C(=O)N[C@@H](C)C(=O)N[C@@H](CCC(N)=O)C(N)=O)NC(=O)[C@H](CCCCN)NC(=O)[C@H](CC(C)C)NC(=O)[C@H](Cc2ccccc2)NC1=O)[C@@H](C)O)C(C)C [SP-9, Ac-NleDVNAibTL$FLK$AAQ-NH2] (Ac-[Nle]DVN[Aib]TL[S5]FLK[S5]AAQ-NH2; staple 8-12) . Its measured AUC,all is 8190
